Experiment: in vivo
Design: species or system mice
Details: male, NU/J athymic nude, mouse, 3.81 MBq, total radioactivity, Biodistribution, Blood
assay metric: tissue uptake at 0.5 h (%ID/g)
The figure you give is taken to be in %ID/g; do not add the unit.

Input line: Consider the compound CSCC[C@H](NC(=O)[C@H](CC(C)C)NC(=O)[C@H](Cc1c[nH]cn1)NC(=O)CNC(=O)[C@@H](NC(=O)[C@H](C)NC(=O)[C@H](Cc1c[nH]c2ccccc12)NC(=O)[C@H](CCC(N)=O)NC(=O)CCOCCOCCOCCOCCNC(=O)CN1CCN(CC(=O)O)CCN(CC(=O)O)CCN(CC(=O)O)CC1)C(C)C)C(N)=O [^68Ga-DOTA-PEG(4)-BBN(7-14), metal not drawn] . State its measured tissue uptake at 0.5 h.
Output line: 6.42
